Target: FAD-linked sulfhydryl oxidase ALR (Homo sapiens, UniProt P55789)
Sequence (P55789 whole entry): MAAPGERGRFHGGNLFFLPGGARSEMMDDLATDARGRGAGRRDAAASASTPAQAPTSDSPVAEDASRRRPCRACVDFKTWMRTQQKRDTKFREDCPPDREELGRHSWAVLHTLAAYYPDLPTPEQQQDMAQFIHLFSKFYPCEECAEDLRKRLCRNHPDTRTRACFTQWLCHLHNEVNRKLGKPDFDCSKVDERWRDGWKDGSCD
Experiment: ALR-catalysed DTT oxidation blockers – biochemical, H2O2 detection, luminescence, cherry-pick, dose response (AID 493248)
The source made the active and inactive calls.
Respond only with the outcome that fits, drawn from active, inactive

How did this test come out for O=C1c2sc3nc4n(c(=O)c3c2CCC1Br)CCCCC4 (stereo not given) ?
active

How did this test come out for `CCc1ccc(CNc2ccc(N3CCN(C(C)=O)CC3)cc2)cc1` ?
active

How did this test come out for `COc1ccc(N2CCN(C(=O)Cc3cccs3)CC2)cc1` ?
active

How did this test come out for `CCN(CC)c1ccc(NC(=O)CN2CCN(c3ccccn3)CC2)cc1` ?
active

How did this test come out for CCC(C)Nc1nc2c(c(=O)n(C)c(=O)n2C)n1Cc1cccc(C)c1 (stereo not given) ?
active

How did this test come out for `COc1cc(/C=C2/SC(=S)N(CC(=O)O)C2=O)ccc1OC(=O)c1ccco1` ?
active

How did this test come out for `COc1cc(Br)cc(CN2CCN(c3ncccn3)CC2)c1O` ?
inactive

How did this test come out for `Sc1nnc(-c2ccccn2)n1/N=C/c1cccc2ccccc12` ?
active

How did this test come out for CC(NC(=O)c1ccc(N2CCCC2)c([N+](=O)[O-])c1)c1ccc(S(N)(=O)=O)cc1 (stereo not given) ?
active

How did this test come out for N#CC1=C(N)n2c(s/c(=C\c3cccs3)c2=O)=C(C#N)C1c1cccs1 (stereo not given) ?
active

How did this test come out for `COC(=O)[C@H](Cc1ccccc1)NC(=O)N1CCN(c2ccccc2)CC1` ?
active

How did this test come out for `Cn1cnc2cc(NCc3ccc(Cl)cc3)ccc21` ?
active

How did this test come out for `O=C1CCCN1CCCNc1ncnc2c1[nH]c1ccc(Cl)cc12` ?
active

How did this test come out for `COc1cc(/C=N/NC(=O)c2cccc([N+](=O)[O-])c2)cc(OC)c1O` ?
active

How did this test come out for `COc1cccc(N/N=C/c2cccc(Br)c2O)c1` ?
active

====

Target: Nonstructural protein 1 (Influenza A virus, UniProt Q194T2)
Sequence (Q194T2 whole entry): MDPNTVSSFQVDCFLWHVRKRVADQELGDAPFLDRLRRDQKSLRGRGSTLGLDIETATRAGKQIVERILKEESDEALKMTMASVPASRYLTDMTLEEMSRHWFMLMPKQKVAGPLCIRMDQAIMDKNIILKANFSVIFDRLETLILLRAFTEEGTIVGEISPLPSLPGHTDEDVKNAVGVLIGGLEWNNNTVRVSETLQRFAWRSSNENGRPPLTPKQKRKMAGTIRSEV
Format: functional, Influenza A virus (A/California/07/2009(H1N1))
Active and inactive are the calls of the source.
Would you mind telling me the reported IC50 of each entry?

Assign IC50 to the following record: `CN(C)c1ccc(C=c2c3ccccc3n3c2cc(-c2ccc(Cl)cc2)[n+]3C)cc1`
5.85 µM (active)

Assign IC50 to the following record: `CN(C)c1ccc(N=Nc2ccccc2C(=O)OCC(=O)NC2CCCC2)cc1`
20.4 µM (active)

Assign IC50 to the following record: `S=C(NN=C(c1ccccc1)c1ccccn1)N(Cc1ccccn1)Cc1ccccn1`
2.59 µM (active)

Assign IC50 to the following record: `Cn1cc(C(=O)N/N=C/c2c(O)ccc3ccccc23)ccc1=O`
> 100 µM (active)

====

Test system: H9c2;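 also: cell death induced by hydrogen peroxide oxidative stress; compound pretreatment for 60 min then peroxide exposure for 2 h; potency is for protecting the cells against peroxide damage rather than for killing them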;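 also: confirmatory concentration-response retest of ultra-high-throughput screening hits for modulation of myocardial damage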
Assay: cells
Assay type: functional, cell-based
Settings: Rattus norvegicus, H9c2, Myocardium
Calls of active or inactive are those of the source.
Respond only with the outcome that fits, drawn from active, inactive

How did this test come out for O=C1NC(c2cccs2)Nc2ccccc21 (centres undefined) ?
active

How did this test come out for `COCCn1ccc2c(OCC(=O)Nc3ccccc3OC)cccc2c1=O` ?
inactive

How did this test come out for `COC(=O)c1ccccc1NC(=O)c1ccc2nccnc2c1` ?
active

How did this test come out for `COc1cccc(-c2nn3c(-c4ccco4)nnc3s2)c1` ?
inactive
